target under test: T1, human PCSK9 (PCSK9 antigen, SEQ ID NO. 53) (human, UniProt A8T644 31-152; Q8NBP7 153-692, Biotin-labelled on amines in the MSD-SET and sorting experiments; positions not given.)
T1 construct: Biotin-labelled in MSD-SET; also called PCSK9-WT; PCSK9 protein
protocol: BLI (ForteBio), IgG on AHQ sensor, 100 nM antigen
measurement name: Kd (nM)
Value expressed in nM; do not type the unit.

binder	meas value
Lodelcizumab (antibody, V domains shown) VH: QVQLVQSGAEVKKPGASVKVSCKASGYTFSTMYMSWVRQAPGQGLEWMGRIDPANEHTNYAQKFQGRVTMTRDTSISTAYMELSRLTSDDTAVYYCARSYYYYNMDYWGQGTLVTVSS VL: QIVLTQSPATLSVSPGERATLSCRASQSVSYMHWYQQKPGQAPRLLIYGVFRRATGIPDRFSGSGSGTDFTLTIGRLEPEDFAVYYCLQWSSDPPTFGQGTKLEIK	1.51
ADI-10090 (antibody, human IgG2, kappa, V domains shown, IgG) VH: QLQLQESGPGLVKPSETLSLTCTVSGGSIWSSSYYWTWIRQPPGKGLEWIGSINYRGSTYYNPSLKSRVTISVDTSKNQFSLKLSSVTAADTAVYYCARENSGVVPAAGPNWFDPWGQGTLVTVSS VL: EIVLTQSPATLSLSPGERATLSCRASQSVSSYLAWYQQKPGQAPRLLIYDASNRATGIPARFSGSGSGTDFTLTISSLEPEDFAVYYCQQRRNWFTFGGGTKVEIKR	0.352
ADI-10087 (antibody, human IgG2, kappa, V domains shown, also called anti-PCSK antibody of the invention) VH: QLQLQESGPGLVKPSETLSLTCTVSGGSISSASYYWSWIRQPPGKGLEWIGSINYRGSTYYNPSLKSRVTISVDTSKNQFSLKLSSVTAADTAVYYCARENSGVVPAAGPNWFGPWGQGTLVTVSS VL: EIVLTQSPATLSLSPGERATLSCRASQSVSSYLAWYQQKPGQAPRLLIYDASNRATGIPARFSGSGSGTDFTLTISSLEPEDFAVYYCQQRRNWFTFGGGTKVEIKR	0.296
Evolocumab (antibody, V domains shown) VH: QVQLVQSGAEVKKPGASVKVSCKASGYTLTSYGISWVRQAPGQGLEWMGWVSFYNGNTNYAQKLQGRGTMTTDPSTSTAYMELRSLRSDDTAVYYCARGYGMDVWGQGTTVTVSS VL: QSALTQPASVSGSPGQSITISCTGTSSDVGGYNSVSWYQQHPGKAPKLMIYEVSNRPSGVSNRFSGSKSGNTASLTISGLQAEDEADYYCNSYTSTSMVFGGGTKLTVL	1.03
ADI-10086 (antibody, human IgG2, kappa, V domains shown, IgG) VH: QLQLQESGPGLVKPSETLSLTCTVSGGSIRSSAYYWGWIRQPPGKGLEWIGSINYRGSTYYNPSLKSRVTISVDTSKNQFSLKLSSVTAADTAVYYCARENSGVVPAAGPNWFGPWGQGTLVTVSS VL: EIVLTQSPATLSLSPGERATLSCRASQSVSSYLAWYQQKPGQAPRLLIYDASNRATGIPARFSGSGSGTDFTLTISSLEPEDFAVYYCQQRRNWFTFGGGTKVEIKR	0.336
ADI-10089 (antibody, human IgG2, kappa, V domains shown, IgG) VH: QLQLQESGPGLVKPSETLSLTCTVSGGSIGSSSYYWTWIRQPPGKGLEWIGSINYRGSTYYNPSLKSRVTISVDTSKNQFSLKLSSVTAADTAVYYCARENSGVVPAAGPNWFDPWGQGTLVTVSS VL: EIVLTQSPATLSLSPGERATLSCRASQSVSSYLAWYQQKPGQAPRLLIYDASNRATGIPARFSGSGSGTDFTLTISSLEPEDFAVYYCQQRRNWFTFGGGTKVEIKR	0.311
ADI-10088 (antibody, human IgG2, kappa, V domains shown, IgG) VH: QLQLQESGPGLVKPSETLSLTCTVSGGSIGSSSYYWAWIRQPPGKGLEWIGSINYRGSTYYNPSLKSRVTISVDTSKNQFSLKLSSVTAADTAVYYCARENSGVVPAAGPNWFDPWGQGTLVTVSS VL: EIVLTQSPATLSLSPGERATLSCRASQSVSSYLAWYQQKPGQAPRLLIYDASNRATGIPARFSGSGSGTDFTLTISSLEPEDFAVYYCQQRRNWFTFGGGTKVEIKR	0.471
ADI-02396 (antibody, human IgG2, kappa, V domains shown, IgG; also called parent antibody) VH: QLQLQESGPGLVKPSETLSLTCTVSGGSISSSSYYWGWIRQPPGKGLEWIGSIYYSGSTYYNPSLKSRVTISVDTSKNQFSLKLSSVTAADTAVYYCAREGSGVVPAAGPNWFDPWGQGTLVTVSS VL: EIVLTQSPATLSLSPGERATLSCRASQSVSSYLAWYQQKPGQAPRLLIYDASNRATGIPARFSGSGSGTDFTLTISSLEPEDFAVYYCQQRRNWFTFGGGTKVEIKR	9.5

# input So what does the record say about Kd for Bococizumab (antibody, V domains shown) VH: QVQLVQSGAEVKKPGASVKVSCKASGYTFTSYYMHWVRQAPGQGLEWMGEISPFGGRTNYNEKFKSRVTMTRDTSTSTVYMELSSLRSEDTAVYYCARERPLYASDLWGQGTTVTVSS VL: DIQMTQSPSSLSASVGDRVTITCRASQGISSALAWYQQKPGKAPKLLIYSASYRYTGVPSRFSGSGSGTDFTFTISSLQPEDIATYYCQQRYSLWRTFGQGTKLEIK ?
# output 0.386

# input Another binder to look at: ADI-10085 (antibody, human IgG2, kappa, V domains shown, IgG) VH: QLQLQESGPGLVKPSETLSLTCTVSGGSIVSSSYYWAWIRQPPGKGLEWIGSINYKGSTYYNPSLKSRVTISVDTSKNQFSLKLSSVTAADTAVYYCARENSGVVPAAGPNWFGPWGQGTLVTVSS VL: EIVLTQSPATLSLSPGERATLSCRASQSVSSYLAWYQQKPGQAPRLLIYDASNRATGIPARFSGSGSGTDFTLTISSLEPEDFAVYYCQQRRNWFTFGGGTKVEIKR
# output 0.295
